The measurements presented in this section are drawn from ChEMBL document CHEMBL3612013.

# assay_overview: Aqueous solubility in pH 7.4 PBS incubated for 48 hrs at 25 degC by spectrophotometry
# Type: physicochemical
Consider the following molecules and their measured solubility at 48 h readings.
metric_name: solubility at 48 h (µg/mL)

INSERT INTO measurements (smiles_code, unit_abbrev, quantitative_result) VALUES
  ('NS(=O)(=O)c1ccc(CCNC(=O)NS(=O)(=O)c2ccc(F)cc2)cc1', 'µg/mL', 972),
  ('Cc1ccc(S(=O)(=O)NC(=O)NCCc2ccc(S(N)(=O)=O)cc2)cc1', 'µg/mL', 87);

###

Consider the following molecules and their measured solubility at 48 h readings.
# assay_overview: Aqueous solubility in pH 7.4 PBS in presence of hydroxypropyl-gamma cyclodextrin incubated for 48 hrs at 25 degC by spectrophotometry
# Format: physicochemical
# conditions: PBS with hydroxypropyl-gamma cyclodextrin
metric_name: solubility at 48 h

INSERT INTO measurements (smiles_code, result) VALUES
  ('NS(=O)(=O)c1ccc(CCNC(=O)NS(=O)(=O)c2ccc(F)cc2)cc1', '2.33 mg/mL'),
  ('Cc1ccc(S(=O)(=O)NC(=O)NCCc2ccc(S(N)(=O)=O)cc2)cc1', '0.278 mg/mL');
